Quick list: melting point per entry.

INSERT INTO measurements (compound, measured_property, reported) VALUES
  ('C(#Cc1ccc2cc3c(cc2c1)OCCO3)c1ccccc1 [Compound 3ga]', 'melting point', '130 to 132 °C'),
  ('COc1ccc(OC)c2cc(CC(=O)c3ccccc3)ccc12 [Compound 3ba]', 'melting point', '145 to 146 °C');

The record that follows has no melting point shown yet.
Per the records, this compound ( O=C(Cc1ccc2ccccc2c1)c1ccccc1 [Compound 3aa, 2-(naphthalen-2-yl)-1-phenylethanone] ) has melting point equal to 122 to 124 °C

###

Form field: melting point (one value per entry).

Worked examples follow.
INSERT INTO assay_data (compound, reported) VALUES
  ('[2H]C(C(=O)c1ccccc1)c1ccc2ccccc2c1 (centres unmarked)', '129 to 130 °C'),
  ('Cc1cc2ccc(CC(=O)c3ccccc3)cc2cc1C', '142 to 144 °C'),
  ('Cc1ccc(C(=O)Cc2ccc3ccccc3c2)cc1', '144 to 146 °C'),
  ('O=C(Cc1ccc2ccccc2c1)c1ccc(C(F)(F)F)cc1', '179 to 181 °C'),
  ('O=C(Cc1ccc2cc(Br)c(Br)cc2c1)c1ccccc1', '152 to 154 °C');

# ---- query compound ----
Query O=C(Cc1ccc2ccccc2c1)c1ccc(F)cc1 yields melting point of 145 to 147 °C
